FYI, the data here is from paper PMC5603512.

IC50 at 72 h reference
test: Cytotoxicity SRB assay, A-549; conditions: human

{"columns": ["MOLECULE", "IC50 at 72 h"],
 "data": [
  ["COc1cc(O)c2c(c1Cl)/C=C/C[C@H](O)[C@@H]1OC(C)(C)O[C@H]1CCC[C@H](C)OC2=O", "> 10 µM"],
  ["COc1cc(OC(C)=O)c2c(c1Cl)/C=C/C[C@H](OC(C)=O)[C@H](OC(C)=O)[C@@H](OC(C)=O)CCC[C@H](C)OC2=O", "> 10 µM"],
  ["COc1cc(O)c2c(c1)/C=C/C[C@H](O)[C@H](O)C(=O)CCC[C@H](C)OC2=O", "> 10 µM"],
  ["COc1cc(O)c2c(c1)C=CCC1OC(C)(C)OC1C(=O)C=CCC(C)OC2=O (stereo not shown)", "> 10 µM"],
  ["COc1cc(O)c2c(c1)/C=C/C[C@H](O)[C@H](O)[C@@H](O)CCC[C@H](C)OC2=O", "> 10 µM"],
  ["COc1cc(O)c2c(c1Cl)/C=C/C[C@H](O)[C@H](O)[C@@H](O)CCC[C@H](C)OC2=O", "> 10 µM"],
  ["COc1cc(O)c2c(c1)/C=C/C[C@H]1OC(C)(C)O[C@@H]1C(=O)/C=C/C[C@H](C)OC2=O", "9.75 µM"],
  ["COc1cc(O)c2c(c1)/C=C/C[C@H](O)[C@H](O)[C@@H](O)/C=C/C[C@H](C)OC2=O", "> 10 µM"],
  ["COc1cc(O)c2c(c1)/C=C/C[C@H]1OC(C)(C)O[C@H]1C(=O)/C=C/C[C@H](C)OC2=O", "> 10 µM"],
  ["COc1cc(O)c2c(c1)/C=C/C[C@@H]1OC(C)(C)O[C@@H]1C(=O)/C=C/C[C@H](C)OC2=O", "> 10 µM"]
]}

---

# Lookup of reported IC50 at 72 h keyed by entry
assay: Cytotoxicity SRB assay, HeLa; conditions: human
MEASUREMENT_NAME: IC50 at 72 h

{"columns": ["SMILES_DATA", "OBSERVED_MEASUREMENT"],
 "data": [
  ["COc1cc(O)c2c(c1Cl)/C=C/C[C@H](O)[C@@H]1OC(C)(C)O[C@H]1CCC[C@H](C)OC2=O", "> 10 µM"],
  ["COc1cc(O)c2c(c1)/C=C/C[C@H](O)[C@H](O)C(=O)CCC[C@H](C)OC2=O", "> 10 µM"],
  ["COc1cc(O)c2c(c1)/C=C/C[C@H]1OC(C)(C)O[C@H]1C(=O)/C=C/C[C@H](C)OC2=O", "> 10 µM"],
  ["COc1cc(O)c2c(c1)/C=C/C[C@H]1OC(C)(C)O[C@@H]1C(=O)/C=C/C[C@H](C)OC2=O", "6.59 µM"]
]}

---

Entries and their IC50 at 72 h values follow.
assay: Cytotoxicity SRB assay, HCT-116; conditions: human, HCT-116 colon carcinoma cells
MEASUREMENT_NAME: IC50 at 72 h

{"columns": ["MOLECULE", "OBSERVED_MEASUREMENT"],
 "data": [
  ["COc1cc(O)c2c(c1)/C=C/C[C@@H](O)[C@@H](O)C(=O)/C=C/C[C@H](C)OC2=O [Compound 5]", "> 10 µM"],
  ["COc1cc2c(c(OC(C)=O)c1)C(=O)O[C@@H](C)C/C=C/[C@@H]1OC(C)(C)O[C@H]1[C@@H](OC(C)=O)C/C=C/2 [Compound 11]", "> 10 µM"],
  ["COc1cc(O)c2c(c1)/C=C/C[C@H](OC(C)=O)[C@H](OC(C)=O)[C@@H](OC(C)=O)/C=C/C[C@H](C)OC2=O [Compound 12]", "> 10 µM"],
  ["COc1cc2c(c(OC(C)=O)c1)C(=O)O[C@@H](C)C/C=C/[C@H](OC(C)=O)[C@@H](OC(C)=O)[C@@H](OC(C)=O)C/C=C/2 [Compound 13]", "> 10 µM"],
  ["COc1cc(O)c2c(c1Cl)/C=C/C[C@H](O)[C@H](O)[C@@H](O)/C=C/C[C@H](C)OC2=O [Compound 16]", "> 10 µM"],
  ["CCC(=O)Oc1cc(OC)cc2c1C(=O)O[C@@H](C)C/C=C/[C@H](OC(=O)CC)[C@@H](OC(=O)CC)[C@@H](OC(=O)CC)C/C=C/2 [Compound 14]", "> 10 µM"],
  ["COc1cc(O)c2c(c1)/C=C/C[C@@H](O)[C@H](O)C(=O)/C=C/C[C@H](C)OC2=O [Compound 3]", "> 10 µM"],
  ["COc1cc(O)c2c(c1)/C=C/C[C@H](O)[C@@H](O)C(=O)/C=C/C[C@H](C)OC2=O [Compound 4]", "> 10 µM"],
  ["COc1cc(O)c2c(c1)/C=C/C[C@H](O)[C@H](O)C(=O)/C=C\\C[C@H](C)OC2=O [Compound 7]", "1.09 µM"],
  ["COc1cc(O)c2c(c1Cl)/C=C/C[C@H](O)[C@@H]1OC(C)(C)O[C@H]1/C=C/C[C@H](C)OC2=O [Compound 17]", "> 10 µM"],
  ["COc1cc2c(c(OC(C)=O)c1)C(=O)O[C@@H](C)C/C=C/C(=O)[C@@H](OC(C)=O)[C@H](OC(C)=O)C/C=C/2 [Compound 24]", "> 10 µM"],
  ["COc1cccc2c1C(=O)c1c(O)c3c(c(O)c1C2=O)C[C@@](O)(C(=O)CO)C[C@@H]3O[C@H]1C[C@H](N)[C@H](O)[C@H](C)O1 [Adriamycin, reference compound]", "0.21 µM"]
]}
